- Tested on: GABA A
- experimental_details: Displacement of selective ligand from GABA A receptor
- Assay type: binding
- study_conditions: 10^-5 M; 10 µM
experimental_readout: Dispacement percentage Gaba A (%)
Entry rule: numbers only, all in %.

Give Dispacement percentage Gaba A (GABA A) of the following compound: COc1cc(N)c(Cl)cc1C(=O)N[C@H]1C[C@H]2CC[C@@H](C1)N2C [BRL 24682, reference compound]
89

Give Dispacement percentage Gaba A (GABA A) of the following compound: O=C(NC1CN2CCC1CC2)c1c[nH]c2ncccc12 (stereo not shown)
6.7

Give Dispacement percentage Gaba A (GABA A) of the following compound: Cc1nccn1CC1CCc2c(c3ccccc3n2C)C1=O (racemic) [Ondasetron, reference compound]
38

Give Dispacement percentage Gaba A (GABA A) of the following compound: "CN1[C@@H]2CC[C@H]1C[C@@H](NC(=O)c1c[nH]c3ncccc13)C2"
83

Data origin: patent US5750536A
